System: Mtb H37Rv
assay-remarks: Resazurin reduction microplate assay, growth inhibition of Mtb H37Rv
Format: cell-based, Mycobacterium tuberculosis
condition-label: Mycobacterium tuberculosis, H37RV, average of two independent experiments, each in triplicate; read-out: MIC50 Mtb H37Rv
result-type: MIC50 (µM)
Response body: numeric value in µM, unit text excluded.

| input-smiles | unit-spec | observed-value |
| --- | --- | --- |
| CC(C)C[C@H](NC(=O)N[C@@H](Cc1c[nH]c2ccccc12)C(=O)O)C(=O)N[C@H](C(=O)NC[C@H]1C[C@@H](O)[C@H](n2ccc(=O)[nH]c2=O)O1)[C@H](C)N(C)C(=O)[C@@H](N)Cc1ccccc1 | µM | 4.05 |
| CC(C)C[C@H](NC(=O)N[C@@H](Cc1c[nH]c2ccccc12)C(=O)O)C(=O)N[C@H](C(=O)NC[C@H]1C[C@@H](O)[C@H](n2ccc(=O)[nH]c2=O)O1)[C@H](C)N(C)C(=O)[C@@H](N)Cc1ccc2ccccc2c1 | µM | 3 |
| C[C@@H]([C@H](NC(=O)[C@@H](NC(=O)N[C@@H](Cc1c[nH]c2ccccc12)C(=O)O)C1CCCCC1)C(=O)NC[C@H]1C[C@@H](O)[C@H](n2ccc(=O)[nH]c2=O)O1)N(C)C(=O)CN | µM | 0.51 |

# ---- query compound ----
// recorded MIC50 for `CC(C)C[C@H](NC(=O)N[C@@H](Cc1c[nH]c2ccccc12)C(=O)O)C(=O)N[C@H](C(=O)NC[C@H]1C[C@@H](O)[C@H](n2ccc(=O)[nH]c2=O)O1)[C@H](C)N(C)C(=O)[C@@H](N)[C@@H](C)O` : 1.35
